Exercise: for every item that follows, state its recorded kon.
System: anti-digoxin 26-10 scFv(Dig) variant LC94F (light chain residue 94→Phe)
Format: binding, murine
test-settings: SPR, hapten-BSA conjugate immobilized on CM5 chip, pH 7.4, 25° C.
A complete answer gives the number followed by the unit.

What kon value was documented for this compound, C[C@@H]1O[C@@H](O[C@H]2C[C@@H](O)[C@]3(CO)[C@H]4[C@H](O)C[C@]5(C)[C@@H](C6=CC(=O)OC6)CC[C@]5(O)[C@@H]4CC[C@]3(O)C2)[C@H](O)[C@H](O)[C@H]1O ?
1e+06 M⁻¹ s⁻¹

What does the record list as kon for C[C@]12CC[C@H](O)C[C@H]1CC[C@@H]1[C@@H]2CC[C@]2(C)[C@@H](C3=CC(=O)OC3)CC[C@]12O ?
1e+06 M⁻¹ s⁻¹

# kon lookup, item C[C@H]1O[C@@H](O[C@H]2[C@@H](O)C[C@H](O[C@H]3[C@@H](O)C[C@H](O[C@H]4CC[C@@]5(C)[C@H](CC[C@@H]6[C@@H]5C[C@@H](O)[C@]5(C)[C@@H](C7=CC(=O)OC7)CC[C@]65O)C4)O[C@@H]3C)O[C@@H]2C)C[C@H](O)[C@@H]1O
1.2e+06 M⁻¹ s⁻¹

Could you tell me which kon is on file for C[C@H]1O[C@@H](O[C@H]2[C@@H](O)C[C@H](O[C@H]3[C@@H](O)C[C@H](O[C@H]4CC[C@@]5(C)[C@H](CC[C@@H]6[C@@H]5CC[C@]5(C)[C@@H](C7=CC(=O)OC7)CC[C@]65O)C4)O[C@@H]3C)O[C@@H]2C)C[C@H](O)[C@@H]1O ?
1.3e+06 M⁻¹ s⁻¹
